Test: chemical genetic growth profiling, strain panel (AID 1159580);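 further: tested at 20 µM; growth read once vehicle control cultures reached saturation at 30 °C; 1 = growth at the plate median or of vehicle wells; lower values mean less growth of the strain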
Settings: S. cerevisiae deletion strains, growth OD, locus YIR030C, strain dcg1, hits give low values
Among all 5,500 compounds or so, about 2,000 (36%) were called active. Not shown: some 18% with an inconclusive outcome. This is one part of the list.
# normalized growth listing for each entry below
Kindly provide the number alone.

[[record]]
given_smiles = "C1CCc2nnnn2CC1"
recorded_number = 1.01


Input line: Endpoint output: normalized growth of "C[CH2][Hg][S]c1ccccc1C(=O)O" . Value?
Output line: 0.0568

Input line: Now this one: "CCCCOc1ccc(CC(=O)NO)cc1"
Output line: 1
